biological target: CCK receptors (Cavia porcellus, UniProt Q63931); construct: cortex and pancreas were removed and rinsed with ice-cold saline; from tissue; host or cells: guinea pig pancreas membranes; test: Inhibition of CCK8-stimulated amylase release from guinea pig pancreatic acini; format: cell-based; conditions: reference concentration for CCK₈ 3x10⁻¹⁰M, 37°C, 30 min, read-out: IC₅₀ (nM) Inhibition of Amylase Release
measured quantity: IC50

Give its IC50 value. Item: CCCCCN(CCCCC)C(=O)[C@@H](Cc1c[nH]c2ccccc12)NC(=O)c1cc2ccccc2cn1 < 100000 nM

Give its IC50 value. Item: O=C(NC(Cc1c[nH]c2ccccc12)C(=O)Nc1cnc2ccccc2c1)c1cnc2ccccc2c1 (stereo not shown) < 10000 nM

Give its IC50 value. Item: C[C@@H](NC(=O)C(Cc1c[nH]c2ccccc12)NC(=O)c1cc2ccccc2[nH]1)c1ccccc1 (stereo partly shown) < 30000 nM

Give its IC50 value. Item: O=C(NC(Cc1c[nH]c2ccccc12)C(=O)N1CCC2CCCCC2C1)c1cnc2ccccc2c1 (stereo not shown) < 100000 nM

Give its IC50 value. Item: CCCCCN(CCCCC)C(=O)[C@H](Cc1c[nH]c2ccccc12)NC(=O)c1cnc2ccccc2c1 < 100000 nM

Give its IC50 value. Item: CCCCCN(CCCCC)C(=O)[C@@H](Cc1c[nH]c2ccccc12)NC(=O)c1cnc2ccccc2c1 42 nM

Give its IC50 value. Item: CCOC(=O)CN(Cc1ccccc1)C(=O)[C@@H](Cc1c[nH]c2ccccc12)NC(=O)c1cnc2ccccc2c1 < 10000 nM

====

Target: CCK receptors (Cavia porcellus, UniProt Q63931)
Construct: cortex and pancreas were removed and rinsed with ice-cold saline; from tissue; host or cells: guinea pig pancreas membranes
Sequence (Q63931 1-430): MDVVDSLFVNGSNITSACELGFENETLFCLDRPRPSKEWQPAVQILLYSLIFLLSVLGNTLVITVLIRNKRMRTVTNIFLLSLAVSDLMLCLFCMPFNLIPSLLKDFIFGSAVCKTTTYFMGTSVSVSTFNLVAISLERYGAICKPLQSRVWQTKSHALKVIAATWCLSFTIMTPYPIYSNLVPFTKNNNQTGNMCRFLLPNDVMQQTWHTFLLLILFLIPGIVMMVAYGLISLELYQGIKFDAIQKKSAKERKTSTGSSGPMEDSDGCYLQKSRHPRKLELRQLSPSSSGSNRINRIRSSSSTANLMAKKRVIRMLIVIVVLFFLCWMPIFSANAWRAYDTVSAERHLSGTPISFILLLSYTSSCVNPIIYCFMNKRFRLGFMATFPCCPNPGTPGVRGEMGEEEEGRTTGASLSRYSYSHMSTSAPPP
Test: [125I]BH-CCK8 radioligand binding, guinea pig pancreatic membranes
Conditions: 37°C for 30 min, read-out: IC₅₀ (nM) [¹²⁵I]-BH-CCK₈ Pancreas
measured quantity: IC50 (nM)

Look up IC50 with CCK receptors (Cavia porcellus, UniProt Q63931) for this molecule: CCCCCN(CCCCC)C(=O)[C@@H](Cc1c[nH]c2ccccc12)NC(=O)c1cc2cc(C)ccc2[nH]1 [Example 105] 620

Look up IC50 with CCK receptors (Cavia porcellus, UniProt Q63931) for this molecule: CCCCCN(CCCCC)C(=O)[C@@H](Cc1c[nH]c2ccccc12)NC(=O)c1ccc(Cl)cc1 [Example 4] 330

Look up IC50 with CCK receptors (Cavia porcellus, UniProt Q63931) for this molecule: CCCCCN(CCCCC)C(=O)C(Cc1c[nH]c2ccc(F)cc12)NC(=O)c1cc2ccccc2[nH]1 (racemic) [Example 64] 330

a = CCOC(=O)CN(Cc1ccccc1)C(=O)[C@@H](Cc1c[nH]c2ccccc12)NC(=O)c1cc2ccccc2[nH]1 [Example 28]
b = O=C(NC(Cc1c[nH]c2ccccc12)C(=O)N1CCC2CCCCC2C1)c1cnc2ccccc2c1 (centres unmarked) [Example 40]
Param metric = IC50; output whichever of a , b has the minimum value. Please respond with the label that marks your chosen entry. a
(a: 280 nM, b: 1000 nM)
